These records show IC50 for Human VEGFR-2 (Homo sapiens, UniProt P35968).
Property measured: IC50 (nM)

# Molecule, IC50, nM
records = [
    ("Cc1nc2ccccc2n(CC(=O)Nc2ccc(C(=O)Nc3nccs3)cc2)c1=O [Compound 11j]", 13.4),
    ("Cc1ccc(NC(=O)c2ccc(NC(=O)CSc3nc4ccccc4nc3C)cc2)cc1 [Compound 12k]", 2.9),
    ("CC(=O)c1ccc(NC(=O)c2ccc(NC(=O)CSc3nc4ccccc4nc3C)cc2)cc1 [Compound 12g]", 5.4),
    ("COc1cccc(NC(=O)c2ccc(NC(=O)CSc3nc4ccccc4nc3C)cc2)c1 [Compound 12e]", 3.8),
    ("Cc1nc2ccccc2n(CC(=O)Nc2ccc(C(=O)Nc3ccccn3)cc2)c1=O [Compound 11i]", 52.7),
    ("Cc1nc2ccccc2n(CC(=O)Nc2ccc(C(=O)Nc3ccc(F)cc3)cc2)c1=O [Compound 11h]", 11.6),
]

(P) COc1ccccc1NC(=O)c1ccc(NC(=O)Cn2c(=O)c(C)nc3ccccc32)cc1 [Compound 11d]
(Q) Cc1nc2ccccc2nc1SCC(=O)Nc1ccc(C(=O)Nc2ccccn2)cc1 [Compound 12i]
(R) CC(=O)c1ccc(NC(=O)c2ccc(NC(=O)Cn3c(=O)c(C)nc4ccccc43)cc2)cc1 [Compound 11g]
(S) CCC(C)NC(=O)c1ccc(NC(=O)CSc2nc3ccccc3nc2C)cc1 (stereo not shown) [Compound 12b]
Q. Provide the items ranked by increasing IC50. Give your ranking as a list of the labels in the requested order.
A. R, S, Q, P
(R: 3.4 nM, S: 15.7 nM, Q: 24.1 nM, P: 37.4 nM)

(A) Cc1cccc(NC(=O)c2ccc(NC(=O)CSc3nc4ccccc4nc3C)cc2)c1 [Compound 12j]
(B) COc1ccc(NC(=O)c2ccc(NC(=O)CSc3nc4ccccc4nc3C)cc2)cc1 [Compound 12f]
(C) COc1ccccc1NC(=O)c1ccc(NC(=O)CSc2nc3ccccc3nc2C)cc1 [Compound 12d]
Q. Order field: IC50 | Direction: descending (largest first) Give your ranking as a list of the labels in the requested order.
A. A, C, B
(A: 37.8 nM, C: 13.4 nM, B: 3.8 nM)

====

pIC50: −log10 of the molar value.
These records show pIC50 for Human VEGFR-2 (Homo sapiens, UniProt P35968).
Property measured: pIC50

Use these answered entries as a reference point.
# Compound, Tested on, pIC50
rows = [
    ("COc1cccc(NC(=O)c2ccc(NC(=O)Cn3c(=O)c(C)nc4ccccc43)cc2)c1 [Compound 11e]", "Human VEGFR-2 (Homo sapiens, UniProt P35968)", 8.59),
    ("Cc1nc2ccccc2nc1SCC(=O)Nc1ccc(C(=O)NC2CCCC2)cc1 [Compound 12c]", "Human VEGFR-2 (Homo sapiens, UniProt P35968)", 7.70),
    ("CCC(C)NC(=O)c1ccc(NC(=O)Cn2c(=O)c(C)nc3ccccc32)cc1 (centres unmarked) [Compound 11b]", "Human VEGFR-2 (Homo sapiens, UniProt P35968)", 8.28),
]

(P) CNC(=O)c1ccc(NC(=O)Cn2c(=O)c(C)nc3ccccc32)cc1 [Compound 11a]
(Q) CNC(=O)c1ccc(NC(=O)CSc2nc3ccccc3nc2C)cc1 [Compound 12a]
(R) Cc1nc2ccccc2nc1SCC(=O)Nc1ccc(C(=O)Nc2ccc(F)cc2)cc1 [Compound 12h]
Q. Order field: pIC50 | Direction: descending (largest first) Give your ranking as a list of the labels in the requested order.
A. P, Q, R
(P: 7.95, Q: 7.49, R: 7.29)

(1) Cc1nc2ccccc2n(CC(=O)Nc2ccc(C(=O)NC3CCCC3)cc2)c1=O [Compound 11c]
(2) COc1ccc(NC(=O)c2ccc(NC(=O)Cn3c(=O)c(C)nc4ccccc43)cc2)cc1 [Compound 11f]
Q. Given the two records 1 and 2 , choose the one whose pIC50 value is lower. Give the label of your selection.
A. 1

Value source: paper PMC8330740
